test: TOX21_p53_BLA_p2_viability: Viability Assessment in the Tox21 HCT-116 p53 Agonism Beta-lactamase Assay, Phase 2 (AID 2283591);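 further: compound exposure lasted 16 h at 37 °C; actives lower the ATP signal meaning cytotoxicity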
Records with an inconclusive call do not appear. Activity calls are given as the source filed them. How the source made its calls: active means hit-call score of the fitted dose curve at least 0.9, where 1 is the maximum; inconclusive means response in the unintended direction; inactive means score below 0.9.
Outcome field: choose from true = active, false = inactive

Would you mind telling me which call this test gave COc1ccc(/C=C/C(=O)Nc2ccccc2C(=O)O)cc1OC ?
false

Please do the same for Oc1cc(O)c(Cl)cc1Cl as well.
false

Please do the same for CN1C(=O)OC(C)(C)C1=O as well.
false

Please do the same for O=[N+]([O-])c1ccccc1CCO as well.
false

Please do the same for COc1cc(NS(C)(=O)=O)ccc1Nc1c2ccccc2nc2ccccc12 as well.
true

Please do the same for C#C[C@]1(O)CC[C@H]2[C@@H]3[C@H](C)CC4=C(CCC(=O)C4)[C@H]3CC[C@@]21C as well.
false

Please do the same for CC(C)[C@H](N)C(=O)OCC(CO)OCn1cnc2c(=O)[nH]c(N)nc21 (stereo partly drawn) as well.
false

Please do the same for CC(C)[N+]1(C)[C@@H]2CC[C@H]1CC(OC(=O)C(CO)c1ccccc1)C2 (stereo partly drawn) as well.
false

Please do the same for CON=C(C(=O)N[C@@H]1C(=O)N2C(C(=O)O)=C(COC(N)=O)CS[C@H]12)c1ccco1 as well.
false

Please do the same for Nc1nc(F)nc2c1ncn2[C@@H]1O[C@H](CO)[C@@H](O)[C@@H]1O as well.
false

====

assay: TOX21_p53_BLA_p3_viability: Viability Assessment in the Tox21 HCT-116 p53 Agonism Beta-lactamase Assay, Phase 3 (AID 2283593);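 further: cells exposed to compound for 16 h before reading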
Records with an inconclusive call do not appear. Calls of active or inactive are those of the source. The calls were made as follows: active = hit-call score of the fitted dose curve at least 0.9, where 1 is the maximum; inconclusive = response in the unintended direction; inactive = score below 0.9.
Outcome field: choose from active, inactive

Please review the entries below; each comes with its answer.
Would you mind telling me which call this test gave N#Cc1ccc(C(=O)O)cc1 ?
inactive

Please do the same for CCCCCCCCCCCC(=O)N(CCO)CCO as well.
inactive

Please do the same for CC[C@H](C)[C@H](N)C(=O)O as well.
inactive

Please do the same for CC(=O)CC(=O)OC(C)(C)C as well.
inactive

Now take the following compound into account.
Would you mind telling me which call this test gave Cc1cc(O)c2c(c1)C(=O)c1cccc(O)c1C2=O ?
inactive

====

target: Cellular tumor antigen p53 (Homo sapiens) (UniProt P04637); assay: TOX21_p53_BLA_p2_ratio: Tox21 HCT-116 p53 Agonism Beta-lactamase Assay, Ratio, Phase 2 (AID 2283592)
Sequence (P04637 whole entry, looked up): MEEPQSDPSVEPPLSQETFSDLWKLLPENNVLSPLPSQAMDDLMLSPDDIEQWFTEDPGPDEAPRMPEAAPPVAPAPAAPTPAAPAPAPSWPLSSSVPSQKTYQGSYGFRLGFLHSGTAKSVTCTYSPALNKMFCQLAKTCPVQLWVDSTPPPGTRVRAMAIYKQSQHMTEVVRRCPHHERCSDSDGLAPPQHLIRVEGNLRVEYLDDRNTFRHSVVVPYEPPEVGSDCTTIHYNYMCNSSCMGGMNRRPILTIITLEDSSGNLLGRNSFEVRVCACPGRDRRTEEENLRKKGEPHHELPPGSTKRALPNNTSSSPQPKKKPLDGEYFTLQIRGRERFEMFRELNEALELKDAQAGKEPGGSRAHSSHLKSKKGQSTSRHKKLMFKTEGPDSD
Inconclusive results are not listed. Calls of active or inactive are those of the source. How the source made its calls: active means hit-call score of the fitted dose curve at least 0.9, where 1 is the maximum; inconclusive means response in the unintended direction; inactive means score below 0.9.
measured-parameter: outcome

Item CCCCCCCCS has what recorded outcome?
inactive

Please do the same for OCC(O)[C@@H](O)[C@H](O)[C@H](O)CO[C@H]1O[C@H](CO)[C@@H](O)[C@H](O)[C@H]1O (stereo partly drawn) as well.
inactive

Please do the same for CC1=C(/C=C/C(C)=C/C=C/C(C)=C\C=O)C(C)(C)CCC1 as well.
inactive

====

biological target: Cellular tumor antigen p53 (Homo sapiens) (UniProt P04637); assay: TOX21_p53_BLA_p4_ratio: Tox21 HCT-116 p53 Agonism Beta-lactamase Assay, Ratio, Phase 4 (AID 2283601)
Records with an inconclusive call do not appear. Activity calls are given as the source filed them. How the source made its calls: active means hit-call score of the fitted dose curve at least 0.9, where 1 is the maximum; inconclusive means response in the unintended direction; inactive means score below 0.9.
Outcome field: choose from 1.0 (active), 0.0 (inactive)

Please review the entries below; each comes with its answer.
Would you mind telling me which call this test gave O=c1n(CCCN2CCN(c3cccc(Cl)c3)CC2)nc2ccccn12 ?
0.0

Please do the same for CC(C)(C)OC(=O)c1ccccc1C(=O)O as well.
0.0

Please do the same for c1cc(OCC2CO2)cc(OCC2CO2)c1 (stereo not drawn) as well.
1.0

Please do the same for CC(C)(C)NC[C@H](O)COc1ccccc1C1CCCC1 as well.
0.0

Please do the same for [Cl-].[Cl-].[NH2-].[NH2-].[Pt+4] as well.
0.0

Please do the same for CCN(CC)CCNC(=O)c1cc(Br)c(N)cc1OC as well.
0.0

Please do the same for CCCCCCCC/C=C/CCCOC(C)=O as well.
0.0

Please do the same for Cc1ccccn1 as well.
0.0

Next:
Would you mind telling me which call this test gave C=CCn1cc[n+](C)c1 ?
0.0

Please do the same for O=C(CS)Nc1ccccc1 as well.
0.0

Please do the same for C=CCOc1ccc(CC(=O)O)cc1Cl as well.
0.0

Please do the same for CCC(C)=NO as well.
0.0

Please do the same for CCCC(=O)O[C@]1(C(=O)COC(C)=O)CC[C@H]2[C@@H]3C[C@H](F)C4=CC(=O)C=C[C@]4(C)[C@@]3(F)[C@@H](O)C[C@@]21C as well.
0.0

Please do the same for CC(=O)Oc1ccc2c(c1)CC[C@@H]1[C@@H]2CC[C@]2(C)[C@@H](O)CC[C@@H]12 as well.
0.0

Please do the same for CCOC(C)(C)C as well.
0.0

Please do the same for CC(=O)O[C@]1(C(C)=O)CC[C@H]2[C@@H]3C=C(C)C4=CC(=O)CC[C@]4(C)[C@H]3CC[C@@]21C as well.
0.0

Please do the same for Nc1cnn([C@@H]2O[C@H](CO)[C@@H](O)[C@H]2O)c(=O)n1 as well.
1.0

Please do the same for S=C1SCN(Cc2ccccc2)CN1Cc1ccccc1 as well.
0.0

Please do the same for O=C(O)c1ccccc1OP(=O)(O)O as well.
0.0

Please do the same for CCC(=O)OC as well.
0.0

Please do the same for c1ccc(SSc2ccccc2)cc1 as well.
0.0

Please do the same for CCC(CC)(CC(=O)Nc1cccc(/C=C/c2nc(C3CCC3)cs2)c1)C(=O)O as well.
0.0

Please do the same for C=Cc1ccccc1 as well.
0.0

Please do the same for CCOC(=O)CS as well.
0.0

Please do the same for CC1CCc2c(N3CCC(O)CC3)c(F)cc3c(=O)c(C(=O)O)cn1c23 (stereo not drawn) as well.
0.0

Please do the same for O=C1C(c2[nH]c3ccccc3c2O)=Nc2ccccc21 as well.
0.0

Taken from PubChem BioAssay (EPA / NIEHS).
